target: human MCH-1R (human, UniProt Q99705 1-353); assay: cell-based or functional assay
Sequence (Q99705 whole entry): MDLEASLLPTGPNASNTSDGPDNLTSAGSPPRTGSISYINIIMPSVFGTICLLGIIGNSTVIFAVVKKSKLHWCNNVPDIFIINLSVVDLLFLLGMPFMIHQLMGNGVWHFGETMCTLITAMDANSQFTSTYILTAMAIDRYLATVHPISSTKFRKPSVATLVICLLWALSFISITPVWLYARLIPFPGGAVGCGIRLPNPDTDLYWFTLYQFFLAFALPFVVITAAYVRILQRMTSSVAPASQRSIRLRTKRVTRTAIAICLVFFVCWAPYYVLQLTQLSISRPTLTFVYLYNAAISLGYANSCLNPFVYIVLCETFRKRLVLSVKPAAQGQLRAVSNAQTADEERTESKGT
Positions of bridges follow the written chain, without caps; N, C: chain ends.
experimental endpoint: EC50, aequorin bioluminescence (nM)

A: XCMLGRVYRPC (N-terminal acetyl; D-Cit (D-citrulline) at position 6; C-terminal amide; disulfide cycle) [SEQ. ID. NO. 14 (Ac-D-Cit^6 analog of Ac-hMCH(6-16)-NH2)]
B: Ac-RCMLGRVYRPC-NH2 (disulfide 2-11 (inferred), also called ID; NO; parent compound) [Ac-hMCH(6-16)-NH2]
(Q) Two entries are listed, A and B . Which one carries the higher EC50, aequorin bioluminescence? Use the label to indicate which entry you chose.
(A) A

A: XCMLGRVYRPC (N-terminal acetyl; D-Ser at position 6; C-terminal amide; disulfide cycle) [SEQ. ID. NO. 11 (Ac-D-Ser^6 analog of Ac-hMCH(6-16)-NH2)]
B: XCMLGRVYRPC (D-Arg at position 6, no acetyl; C-terminal amide; disulfide cycle) [SEQ. ID. NO. 4 (D-Arg^6 analog lacking an Ac group)]
(Q) Two entries are listed, A and B . Which one carries the higher EC50, aequorin bioluminescence? Use the label to indicate which entry you chose.
(A) A
